pIC50: −log10 of the molar value.
Quick record of pIC50 values for E. coli GroEL/ES (Escherichia coli, UniProt P0A6F5).
observable: pIC50

compound	comparison-symbol	measured-value
CCOc1nc2cccc(C(=O)O)c2n1Cc1ccc(-c2ccccc2-c2nnn[nH]2)cc1	<	3.60
CC(C)(C)NCC(O)c1ccc(O)c(CO)c1 (centres undefined) [ALBUTEROL]	<	3.60
O=C(O[C@@H]1Cc2c(O)cc(O)cc2O[C@@H]1c1cc(O)c(O)c(O)c1)c1cc(O)c(O)c(O)c1 [EPIGALOCATECHIN GALLATE]	=	6.24
CCCCN1CCC(COC(=O)c2cc(Cl)c(N)c3c2OCCO3)CC1	<	3.60
CC[C@H]1OC(=O)[C@H](C)[C@@H](O[C@H]2C[C@@](C)(OC)[C@@H](O)[C@H](C)O2)[C@H](C)[C@@H](O[C@@H]2O[C@H](C)C[C@H](N(C)C)[C@H]2O)[C@](C)(O)C[C@@H](C)C(=O)[C@H](C)[C@@H](O)[C@]1(C)O [ERYTHROMYCIN]	=	3.75
COc1cc(/C=C/C(=O)CC(=O)/C=C/c2ccc(O)c(OC)c2)ccc1O [CURCUMIN]	=	5.54
Oc1ccc(Cl)cc1Cc1cc(Cl)ccc1O [DICHLOROPHEN]	=	4.18
Oc1c(Cl)cc(Cl)c(Cl)c1Cc1c(O)c(Cl)cc(Cl)c1Cl [HEXACHLOROPHENE]	=	5.33
C=C1CC[C@H](O)C/C1=C/C=C1\CCC[C@]2(C)[C@@H]([C@H](C)CCCC(C)C)CC[C@@H]12 [CHOLECALCIFEROL]	=	4.51

###

Quick record of pIC50 values for HSP60/HSP10 (Homo sapiens, UniProt P10809).
pIC50: −log10 of the molar value.

compound	comparison-symbol	pIC50
CCCCN1CCC(COC(=O)c2cc(Cl)c(N)c3c2OCCO3)CC1	<	4.00
CCOc1nc2cccc(C(=O)O)c2n1Cc1ccc(-c2ccccc2-c2nnn[nH]2)cc1	<	4.00
C=C(NC(=O)C(=C)NC(=O)c1csc(C2=N[C@@H]3c4csc(n4)[C@H]4NC(=O)c5csc(n5)[C@H]([C@](C)(O)[C@@H](C)O)NC(=O)[C@H]5CSC(=N5)/C(=C/C)NC(=O)[C@H]([C@@H](C)O)NC(=O)c5csc(n5)[C@]3(CC2)NC(=O)[C@H](C)NC(=O)C(=C)NC(=O)[C@H](C)NC(=O)[C@H]([C@@H](C)CC)N[C@@H]2C=Cc3c([C@H](C)O)cc(nc3[C@H]2O)C(=O)O[C@@H]4C)n1)C(N)=O	=	4.89
O=C1c2ccccc2C(=O)c2c(O)c(O)cc(O)c21	=	4.64
CCCCCCCCCc1ccc(O)cc1	=	5.02
CN(C)c1ccc2nc3ccc(=[N+](C)C)cc-3sc2c1	<	4.00
Cc1cc(C(C#N)c2ccc(Cl)cc2)c(Cl)cc1NC(=O)c1cc(I)cc(I)c1O (stereo not drawn)	=	5.55
CC(C)(C)NCC(O)c1ccc(O)c(CO)c1 (stereo not drawn)	<	4.00
Oc1c(Cl)cc(Cl)cc1Sc1cc(Cl)cc(Cl)c1O	=	5.55
COc1cc(/C=C/C(=O)CC(=O)/C=C/c2ccc(O)c(OC)c2)ccc1O	=	5.08
CC[C@H](C)C1O[C@]2(C=C[C@@H]1C)C[C@@H]1C[C@@H](C/C=C(\C)[C@@H](O[C@H]3C[C@H](OC)[C@@H](O[C@H]4C[C@H](OC)[C@H](NC(C)=O)[C@H](C)O4)[C@H](C)O3)[C@@H](C)/C=C/C=C3\CO[C@@H]4[C@H](O)C(C)=C[C@@H](C(=O)O1)[C@]34O)O2 (stereo partly drawn)	=	4.77
CC[C@H]1OC(=O)[C@H](C)[C@@H](O[C@H]2C[C@@](C)(OC)[C@@H](O)[C@H](C)O2)[C@H](C)[C@@H](O[C@@H]2O[C@H](C)C[C@H](N(C)C)[C@H]2O)[C@](C)(O)C[C@@H](C)C(=O)[C@H](C)[C@@H](O)[C@]1(C)O	<	4.00
CC[n+]1c(-c2ccccc2)c2cc(N)ccc2c2ccc(N)cc21 [HOMIDIUM BROMIDE]	<	4.00

The reported measurements were obtained from ChEMBL document CHEMBL4392822.
